meta.source: PubChem BioAssay (NCATS)

Each record here notes measured activity change % (negative = inhibition).
Molecular target: Thyroid hormone receptor beta (Homo sapiens) (UniProt P10828)
Sequence (P10828 whole entry, looked up): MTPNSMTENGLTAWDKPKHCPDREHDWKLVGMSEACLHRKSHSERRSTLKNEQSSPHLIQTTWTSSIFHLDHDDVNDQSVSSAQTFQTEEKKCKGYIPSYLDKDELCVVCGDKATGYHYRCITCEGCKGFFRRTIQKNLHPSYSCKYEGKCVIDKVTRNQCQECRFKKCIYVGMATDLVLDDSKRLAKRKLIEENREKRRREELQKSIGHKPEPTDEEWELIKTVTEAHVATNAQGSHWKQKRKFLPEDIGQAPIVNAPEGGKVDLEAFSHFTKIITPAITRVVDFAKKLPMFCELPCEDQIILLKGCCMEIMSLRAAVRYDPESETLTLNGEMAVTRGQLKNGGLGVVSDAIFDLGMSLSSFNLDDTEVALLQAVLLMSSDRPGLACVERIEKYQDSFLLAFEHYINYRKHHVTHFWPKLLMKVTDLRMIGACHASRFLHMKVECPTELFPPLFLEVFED
Experiment: qHTS assay for small molecule antagonists of thyroid hormone receptor beta signaling (AID 588547);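 further: cells stimulated with 0.4 nM T3 agonist during compound exposure; series mostly up to about 77 µM; on the % scale 0 is the no-effect control and ±100 the full control effect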
Conditions: TR-UAS-bla HEK293, beta-lactamase ratio, antagonist mode, 18 h
From the text: NIH Chemical Genomics Center [NCGC] U.S. Environmental Protection Agency [EPA] National Institutes of Environmental Health Sciences [NIEHS] National Toxicology Program [NTP] […] NCGC Assay Protocol Summary Using a beta-lactamase reporter-gene under control of the TR response element, a cell-based assay [GeneBLAzer TR-UAS-bla-GripTite assay developed by Invitrogen] was used to measure TR-beta signaling in antagonist mode. […] Detection; Fluorescence; Envision plate reader
Inconclusive results are not listed.
Provide the reading as a plain figure in %.

In the examples that follow, each entry is paired with its recorded activity change % (negative = inhibition).
`COC(OC)(C(=O)c1ccccc1)c1ccccc1` yielded activity change % (negative = inhibition) of -4.01

`CCCCCCCCCCCCCCCC` yielded activity change % (negative = inhibition) of -0.344

`NNS(=O)(=O)c1ccc(Oc2ccc(S(=O)(=O)NN)cc2)cc1` yielded activity change % (negative = inhibition) of -2.89

Further cases:
`Cc1ccc(N=Nc2c(O)ccc3ccccc23)c(C)c1` yielded activity change % (negative = inhibition) of 9.11

`Cl[Si](Cl)(Cl)c1ccccc1` yielded activity change % (negative = inhibition) of -0.0742

`CCCCCCCCCCCCO` yielded activity change % (negative = inhibition) of -1.52

`O=C(O)c1cccc(C(=O)O)c1` yielded activity change % (negative = inhibition) of 17

`CCN(Cc1c(F)cccc1Cl)c1c([N+](=O)[O-])cc(C(F)(F)F)cc1[N+](=O)[O-]` yielded activity change % (negative = inhibition) of -17.5

Cn1c(=O)[nH]c(=O)n(C2CCC(O)CC2)c1=O (stereo not drawn) yielded activity change % (negative = inhibition) of 3.03

BrC1CCC(Br)C(Br)CCC(Br)C(Br)CCC1Br (stereo not drawn) yielded activity change % (negative = inhibition) of 9.02

`CCCCCCCCCC(C)=O` yielded activity change % (negative = inhibition) of -10.7

`COC(=O)c1c(Cl)nn(C)c1S(=O)(=O)NC(=O)Nc1nc(OC)cc(OC)n1` yielded activity change % (negative = inhibition) of -5.79

`COc1ccc(OC)c(OC)c1` yielded activity change % (negative = inhibition) of 7.13

----------
Each record here notes measured activation.
Assay: qHTS assay for small molecule activators of the p53 signaling pathway (AID 651743); further: series mostly up to about 92 µM; % of control where 0% means no effect
Conditions: HCT-116 p53RE-bla, beta-lactamase FRET ratio, 16 h; stronger effect = higher value
Results filed as inconclusive are left out.
Provide the reading as a plain figure in %.

`COc1nc(C)nc(NC(=O)NS(=O)(=O)c2ccccc2OCCCl)n1` yielded activation of -4.39

CCCCC(CC)COC(=O)/C=C\C(=O)OCC(CC)CCCC (stereo not drawn) yielded activation of -1.03

`C[Si]1(C)O[Si](C)(C)O[Si](C)(C)O[Si](C)(C)O1` yielded activation of -2.06

`CCCCCCCCCc1ccccc1` yielded activation of -0.95

`c1ccc2c(c1)Cc1ccccc1-2` yielded activation of 2.83

Further cases:
`CCCCCCCCCCCCCO` yielded activation of -3

`C=Cc1ccccc1Br` yielded activation of -6.55

CCCCCCC(O)CCCCCCCCCCC(=O)OC (stereo not drawn) yielded activation of 0.349

CC(C)CC(C)(O)C#CC(C)(O)CC(C)C (stereo not drawn) yielded activation of 1.9

`CC(C)=CCC[C@@H](C)[C@H]1CC[C@@]2(C)C3=C(CC[C@]12C)[C@@]1(C)CC[C@H](O)C(C)(C)[C@@H]1CC3` yielded activation of 2.67

CCCCCC1CCC(=O)O1 (stereo not drawn) yielded activation of 0.985

`NNS(=O)(=O)c1ccc(Oc2ccc(S(=O)(=O)NN)cc2)cc1` yielded activation of -0.745

`COC(=O)c1ccccc1C(=O)O` yielded activation of -3.42
